# growth annotations
# System: TK-10 renal
# assay notes: NCI-60 one-dose screen, 48 h (100 = growth as untreated, 0 = no growth, -100 = all killed)
# assay setup: 10 µM unless noted
This is part of a sample that, as a whole, favours compounds with a hit. Of some 83,000 tested, about 20% had one in any assay.
reported metric: growth (%)

smiles | result unit | readout value
CCOC(=O)c1cc(/C=C/c2cccc(Cl)c2)on1 | % | 111
Sc1ccc(Nc2c3ccccc3nc3ccccc23)cc1 | % | 104
O=C(O)c1ccnc(Br)c1 | % | 104
COC(=O)c1[nH]c(=O)c(C#N)c(C(=O)OC)c1C(=O)c1ccccc1 | % | 143
CCS(=O)(=O)c1cc(=O)[nH]c(=O)[nH]1 | % | 102

* * *

# Tested on: SN12C renal
# assay notes: NCI-60 one-dose screen, 48 h (100 = growth as untreated, 0 = no growth, -100 = all killed)
# assay setup: 10 µM
The panel holds about 83,000 compounds, 20% with a hit somewhere; the sample as a whole holds those more often.
reported metric: growth (%)

compound | result unit | readout value
CC(C)NC(=O)OCc1c(COC(=O)NC(C)C)c(-c2ccc(Cl)c(Cl)c2)n2c1SCC2 | % | 36.4
CN(C)c1nc2c([nH]1)c(=O)n(C)c(=O)n2C | % | 105
NC(=O)N/N=C\c1ccco1 | % | 98.4
CC(=O)/C(Cc1ccccc1)=N/O | % | 105
O=S(=O)(Cc1ccccc1)c1ccccc1 | % | 104
COc1ccccc1NC(=O)c1cc2cc(Br)ccc2cc1O | % | 9.1
COC(=O)c1cccnc1 | % | 93.2
CCOc1ccc2[nH]c(=S)sc2c1 | % | 102
COc1cc(C(=O)N/N=C/c2cccc([N+](=O)[O-])c2)cc(OC)c1OC | % | 93.8
CCc1nn(Cc2ccccc2)c2nc(C)c(CCc3ccccc3)c(Cl)c12 | % | 86.1
CCOc1ccc(I)cc1 | % | 97.1
O=c1c2ccccc2c(Br)c(Br)c2ccccc12 | % | 96.8
CC(C)CCOC(=O)c1ccccc1 | % | 102
CC(C)=NNC(N)=S | % | 74.4
CC[N+](C)(CC)CCO | % | 98
CC(=O)Nc1cccc(NC(C)=O)n1 | % | 99.7
COCCCNC(=O)c1nnn2c1nc(N)c1cc(Cl)ccc12 | % | 101
Clc1ccc(-c2n[nH]c3c2Cc2ccccc2-3)cc1Cl | % | 94.1
CCNc1nc2c(cnn2C)c(=O)[nH]1 | % | 103
COc1ccc(C2OC(N)=C(O)C2=O)cc1OC (stereo not given) | % | 96.1
Cc1cc2nc(CC(=O)c3cccc([N+](=O)[O-])c3)c(=O)[nH]c2cc1C | % | 86.5
Cc1cc(O)ccc1O | % | 95.3
CC(=O)OC(OC(C)=O)C1CCCO1 (stereo not given) | % | 96.8
C=CCNc1ccccc1 | % | 94.1
Cc1cc(NC(=O)CSCC(=O)O)no1 | % | 101
COc1cc2nn(-c3ccccc3N)nc2cc1OC | % | 106
COc1cc2cc(c1Cl)N(C)C(=O)C[C@H](OC(=O)[C@H](C)N(C)C(C)=O)[C@]1(C)O[C@H]1[C@H](C)[C@@H]1C[C@@](O)(NC(=O)O1)[C@H](OC)C=C/C=C(\C)C2 | % | 27.6
CC(=O)OCC(=O)[C@@]1(O)CC[C@H]2[C@@H]3CC[C@@H]4C[C@H](O)CC[C@]4(C)[C@H]3C(=O)C[C@@]21C | % | 102
CC(C)(N)COS(=O)(=O)O | % | 93.6
Cc1cc(C(C)(C)C)cc(C)c1Br | % | 100
CC1(C)/C(=C\CO)C2CCC1C2 (stereo not given) | % | 99.4
CC(=O)c1cc2c(cc1F)C(C)(C)CCC2(C)C | % | 98.5
c1cc[n+](C2c3ccccc3C([n+]3ccccc3)c3ccccc32)cc1 (stereo not given) | % | 26.7
CCN1C(=O)/C(=C/C=C/N(C)c2ccccc2)SC1=S | % | 94.4
CCOC(=O)c1cc(/C=C/c2cccc(Cl)c2)on1 | % | 86.2
